All figures here come from patent US7332615B2.

test system: lung carcinoma (A-549); assay: Cytotoxicity Assays Method C, A-549; format: cell-based; details: Homo sapiens, A549, 72 h, A549, 50% reduction in cell number after 72 hr of incubation; read-out: IC50 A549
# note: boundary value 2000 nM maps to F; IC50 below it maps to T

Answered cases to consult:
# compound, labelClass
data = [
    ("CN(C)CCNC(=O)c1cc2c(s1)C(=O)c1ccsc1C2=O", "T"),
    ("O=C(O)COCc1cc2c(s1)C(=O)c1sccc1C2=O", "F"),
]

Next, consider the following compound.
**Query** Quick check: IC50 of O=C([O-])CCC(=O)OCc1cc2c(s1)C(=O)c1sccc1C2=O.[Na+] under 2000 nM?
**Result** F
